Give measured FOB (Fold Over Background) for each item. Keep answers brief.
target.of.assay: mouse TIGIT expressed on cells (mouse) (UniProt P86176)
Sequence (P86176 other isoform, or with tags, fused parts or gaps limits assumed, form in doubt): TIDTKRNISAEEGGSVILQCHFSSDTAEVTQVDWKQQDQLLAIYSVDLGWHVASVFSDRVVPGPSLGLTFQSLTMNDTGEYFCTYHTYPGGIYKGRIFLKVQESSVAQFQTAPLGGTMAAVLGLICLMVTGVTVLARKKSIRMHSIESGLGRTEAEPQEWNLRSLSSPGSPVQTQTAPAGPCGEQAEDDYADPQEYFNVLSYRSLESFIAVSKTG
protocol.notes: flow cytometry on HEK 293 cells expressing the target, MFI over parental HEK 293

# input For the binder Clone 25B (antibody, V domains shown) VH: QVQLVQSGAEVKKPGASVKVSCKASGYTFTSYPIGWVRQAPGQGLEWMGWISSYNGNTNYAQKLQGRVTMTTDTSTSTAYMELRSLRSDDTAVYYCARDLSSFWSGDVLGAFDIWGQGTMVTVSS VL: DIQMTQSPSSLSASVGDRVTITCRASQSISSYLNWYQQKPGKAPKLLIYAASSLQSGVPSRFSGSGSGTDFTLTISSLQPEDFATYYCQQSVPPRTFGGGTKVEIK , report FOB (Fold Over Background).
# output 129 fold

# input For the binder Clone 25 (antibody, V domains shown) VH: QVQLVQSGAEVKKPGASVKVSCKASGYTFTSYAISWVRQAPGQGLEWMGWISAYNGNTNYAQKLQGRVTMTTDTSTSTAYMELRSLRSDDTAVYYCARDLSSFWSGDVLGAFDIWGQGTMVTVSS VL: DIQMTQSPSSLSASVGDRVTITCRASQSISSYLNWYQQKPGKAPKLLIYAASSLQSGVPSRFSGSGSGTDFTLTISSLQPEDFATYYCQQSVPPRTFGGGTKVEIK , report FOB (Fold Over Background).
# output 117 fold

# input For the binder Clone 25C (antibody, V domains shown) VH: QVQLVQSGAEVKKPGASVKVSCKASGYTFTSYPIGWVRQAPGQGLEWMGWISSYNGNTNYAQKLQGRVTMTTDTSTSTAYMELRSLRSDDTAVYYCARGASSFWSGDVLGAFDIWGQGTMVTVSS VL: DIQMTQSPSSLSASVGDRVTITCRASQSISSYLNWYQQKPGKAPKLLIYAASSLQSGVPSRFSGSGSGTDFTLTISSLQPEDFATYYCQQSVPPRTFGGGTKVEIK , report FOB (Fold Over Background).
# output 124 fold

# input For the binder Clone 25D (antibody, V domains shown) VH: QVQLVQSGAEVKKPGASVKVSCKASGYTFTSYPIGWVRQAPGQGLEWMGWISSYNGNTNYAQKLQGRVTMTTDTSTSTAYMELRSLRSDDTAVYYCARDLKSFWSGDVLGAFDIWGQGTMVTVSS VL: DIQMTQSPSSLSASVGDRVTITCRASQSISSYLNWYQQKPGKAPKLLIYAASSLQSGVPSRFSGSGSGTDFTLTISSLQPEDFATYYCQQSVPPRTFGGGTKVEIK , report FOB (Fold Over Background).
# output 137 fold

# input For the binder Clone 25A (antibody, V domains shown) VH: QVQLVQSGAEVKKPGASVKVSCKASGYTFTSYAISWVRQAPGQGLEWMGWISAYNGNTKYAQKLQGRVTMTTDTSTSTAYMELRSLRSDDTAVYYCARDLSSFWSGDVLGAFDIWGQGTMVTVSS VL: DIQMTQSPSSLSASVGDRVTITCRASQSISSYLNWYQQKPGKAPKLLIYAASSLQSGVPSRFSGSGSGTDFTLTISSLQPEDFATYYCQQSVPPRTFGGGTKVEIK , report FOB (Fold Over Background).
# output 119 fold

# input For the binder Clone 16E (antibody, V domains shown) VH: QVQLVQSGAEVKKPGSSVKVSCKASGGTFSDYPISWVRQAPGQGLEWMGGIIPIVGGANYAQKFQGRVTITADESTSTAYMELSSLRSEDTAVYYCARQSTWHKVYGTDVWGQGTTVTVSS VL: DIQMTQSPSSVSASVGDRVTITCRASQGISSWLAWYQQKPGKAPKLLIYAASSLQSGVPSRFSGSGSGTDFTLTISSLQPEDFATYYCQQGDSLPPTFGGGTKVEIK , report FOB (Fold Over Background).
# output 56 fold
